Experimental Target: human C5aR(CD88) (Homo sapiens, UniProt P21730)
Construct: expressed in transfected cells; host or cells: rat basophilic leukemia cells (RBL)
Sequence (P21730 1-350): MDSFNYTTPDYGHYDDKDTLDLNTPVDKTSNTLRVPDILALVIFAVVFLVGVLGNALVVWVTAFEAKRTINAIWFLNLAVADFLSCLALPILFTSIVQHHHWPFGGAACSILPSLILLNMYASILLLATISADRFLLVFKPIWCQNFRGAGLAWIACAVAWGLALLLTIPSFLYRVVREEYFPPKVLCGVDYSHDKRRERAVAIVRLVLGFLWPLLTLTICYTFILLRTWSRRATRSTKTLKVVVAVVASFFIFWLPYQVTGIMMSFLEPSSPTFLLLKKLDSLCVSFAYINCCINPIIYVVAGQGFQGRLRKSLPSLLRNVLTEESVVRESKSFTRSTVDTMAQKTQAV
Run Description: Determination of the IC50 value in an enzyme release assay (functional assay, antagonistic activity)
Type: cell-based
Particulars: antagonistic activity; IC50 group in enzyme release assay, RBL cells expressing human C5aR(CD88); read-out: activity (group)
Positions of bridges follow the written chain, without caps; N, C: chain ends. Non-standard residues stand in square brackets, D forms with d. Residues, ends and D or L forms follow the SMILES beside them. *: point of attachment. Phe(4-amidino) = N=C(N)c1ccc(C[C@H](N)C(=O)O)cc1; Bta = N[C@@H](Cc1csc2ccccc12)C(=O)O; Hyp = O=C(O)[C@@H]1C[C@@H](O)CN1; d(hLeu) = CC(C)CC[C@@H](N)C(=O)O; dCha = N[C@H](CC1CCCCC1)C(=O)O; Nicotinoyl = O=C(c1cccnc1)*; Orn = NCCC[C@H](N)C(=O)O
Metric: IC50

CC(=O)N[C@@H](Cc1ccccc1)C(=O)N[C@@H](CCCN)C(=O)N1CCC[C@H]1C(=O)N[C@H](CCC(C)C)C(=O)N[C@@H](Cc1csc2ccccc12)C(=O)N[C@@H](Cc1ccccc1)C(N)=O [Compound 149, Ac-Phe-Orn-Pro-hle-Bta-Phe-NH2] (Ac-F[Orn]P[d(hLeu)][Bta]F-NH2); 10 to 20 nM
CC(=O)N[C@@H](Cc1ccccc1)C(=O)N[C@H]1CCCNC(=O)[C@H](Cc2ccc(C(=N)N)cc2)NC(=O)[C@H](Cc2c[nH]c3ccccc23)NC(=O)[C@@H](CC2CCCCC2)NC(=O)[C@@H]2CCCN2C1=O [compound 21] (Ac-F[Orn]P[dCha]W[Phe(4-amidino)]; lactam 2-C); 200 to 2000 nM

Which IC50 value belongs to O=C(N[C@@H](Cc1ccccc1)C(=O)N[C@H]1CCCNC(=O)[C@H](Cc2ccccc2)NC(=O)[C@H](Cc2c[nH]c3ccccc23)NC(=O)[C@@H](CC2CCCCC2)NC(=O)[C@@H]2C[C@@H](O)CN2C1=O)c1cccnc1 [Compound 326, Fbn-Phe-[Orn-Hyp-cha-Trp-Phe]] (Nicotinoyl-F[Orn][Hyp][dCha]WF; lactam 2-C) ?
50 to 200 nM

====

Experimental Target: human C5aR(CD88) (Homo sapiens)
Construct: expressed in transfected cells; host or cells: rat basophilic leukemia cells (RBL)
Sequence (P21730 1-350): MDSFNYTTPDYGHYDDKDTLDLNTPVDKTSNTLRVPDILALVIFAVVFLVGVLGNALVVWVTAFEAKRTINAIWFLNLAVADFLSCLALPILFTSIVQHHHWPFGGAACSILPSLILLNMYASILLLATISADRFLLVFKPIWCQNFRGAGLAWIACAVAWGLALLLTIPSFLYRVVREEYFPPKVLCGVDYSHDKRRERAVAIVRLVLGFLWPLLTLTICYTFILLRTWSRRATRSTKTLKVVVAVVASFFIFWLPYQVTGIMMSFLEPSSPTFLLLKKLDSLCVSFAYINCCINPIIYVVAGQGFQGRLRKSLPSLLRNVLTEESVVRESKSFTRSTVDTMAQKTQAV
Run Description: Determination of the IC50 value in an enzyme release assay (functional assay, antagonistic activity)
Type: cell-based
Particulars: antagonistic activity; IC50 group in enzyme release assay, RBL cells expressing human C5aR(CD88); read-out: activity (group)
Positions of bridges follow the written chain, without caps; N, C: chain ends. Non-standard residues stand in square brackets, D forms with d. Residues, ends and D or L forms follow the SMILES beside them. Phe(4-F) = N[C@@H](Cc1ccc(F)cc1)C(=O)O; Bta = N[C@@H](Cc1csc2ccccc12)C(=O)O; d(hLeu) = CC(C)CC[C@@H](N)C(=O)O; dCha = N[C@H](CC1CCCCC1)C(=O)O; Pip = O=C(O)[C@@H]1CCCCN1; Nle = CCCC[C@H](N)C(=O)O; Orn = NCCC[C@H](N)C(=O)O
Consider the following compounds; for each one, report its IC50.

Look over these answered cases.
CCCC[C@H](NC(=O)[C@H](Cc1ccccc1)NC(C)=O)C(=O)N1CCC[C@H]1C(=O)N[C@H](CC1CCCCC1)C(=O)N[C@@H](Cc1csc2ccccc12)C(=O)N[C@@H](Cc1ccccc1)C(N)=O [Compound 120, Ac-Phe-Nle-Pro-cha-Bta-Phe-NH2] (Ac-F[Nle]P[dCha][Bta]F-NH2); 0.05 to 0.2 µM
CC(C)CC[C@H]1NC(=O)[C@H](CO)NC(=O)[C@@H](NC(=O)[C@@H](N)Cc2ccccc2)CCCNC(=O)[C@H](CC(C)C)NC(=O)[C@H](Cc2ccc(F)cc2)NC1=O [Compound 387, H-Phe-[Orn-Ser-hle-Pff-Leu]] (H-F[Orn]S[d(hLeu)][Phe(4-F)]L; lactam 2-C); 0.05 to 0.2 µM

Which IC50 value belongs to CC(=O)N[C@@H](Cc1ccccc1)C(=O)N[C@@H](CCCN)C(=O)N1CCCC[C@H]1C(=O)N[C@H](CC1CCCCC1)C(=O)N[C@@H](Cc1c[nH]c2ccccc12)C(=O)N[C@@H](Cc1ccccc1)C(=O)O [Compound 115, Ac-Phe-Orn-Pip-cha-Trp-Phe-OH] (Ac-F[Orn][Pip][dCha]WF-OH) ?
0.2 to 2 µM
